What pIC50 was measured for each of the following?
Tested on: NIH: OVCAR-3
assay_method_text: MTS cell growth inhibition assay, NIH: OVCAR-3
Type: cell-based
assay_conditions: Homo sapiens; NIH: OVCAR-3, Ovarian; mean of 2 independent trials
Please keep in mind that pIC50 is minus log10 of the molar concentration; only the number is needed.

Determine from records and report pIC50 for `C=C1C[C@@H]2[C@H](CC[C@]3(C)C(=O)CC[C@@H]23)[C@@]2(C)C=CC(=O)C=C12`
4.14

Determine from records and report pIC50 for `COC[C@@H]1C[C@@H]2[C@H](CC[C@]3(C)C(=O)CC[C@@H]23)[C@@]2(C)C=CC(=O)C=C12`
4.27

* * *

System: HT-29
assay_method_text: MTS cell growth inhibition assay, HT-29
Assay type: cell-based
assay_conditions: Homo sapiens; HT-29, Colon; mean of 2 independent trials
measured_metric: IC50 (µM)
Field format: number, assumed µM, no unit text.

Determine from records and report IC50 for `COC[C@@H]1C[C@@H]2[C@H](CC[C@]3(C)C(=O)CC[C@@H]23)[C@@]2(C)C=CC(=O)C=C12`
110

Determine from records and report IC50 for `C=C1C[C@@H]2[C@H](CC[C@]3(C)C(=O)CC[C@@H]23)[C@@]2(C)C=CC(=O)C=C12`
103

* * *

Test system: SK-OV-3
assay_method_text: MTS cell growth inhibition assay, SK-OV-3
Assay type: cell-based
assay_conditions: Homo sapiens; SK-OV-3, Ovarian; mean of 2 independent trials
measured_metric: pIC50
Please keep in mind that pIC50 is minus log10 of the molar concentration; only the number is needed.

Determine from records and report pIC50 for `C=C1C[C@@H]2[C@H](CC[C@]3(C)C(=O)CC[C@@H]23)[C@@]2(C)C=CC(=O)C=C12`
4.11

Determine from records and report pIC50 for `COC[C@@H]1C[C@@H]2[C@H](CC[C@]3(C)C(=O)CC[C@@H]23)[C@@]2(C)C=CC(=O)C=C12`
3.97

* * *

What pIC50 was measured for each of the following?
Test system: Capan-2
assay_method_text: MTS cell growth inhibition assay, Capan-2
Type: cell-based
assay_conditions: Homo sapiens; Capan-2, Pancreas; mean of 2 independent trials
Please keep in mind that pIC50 is minus log10 of the molar concentration; only the number is needed.

Determine from records and report pIC50 for C=C1C[C@@H]2[C@H](CC[C@]3(C)C(=O)CC[C@@H]23)[C@@]2(C)C=CC(=O)C=C12 [Exemestane, 6-methylenandrosta-1,4-diene-3,17-dione]
4.03

Determine from records and report pIC50 for COC[C@@H]1C[C@@H]2[C@H](CC[C@]3(C)C(=O)CC[C@@H]23)[C@@]2(C)C=CC(=O)C=C12 [Exemestane 6R]
3.98

* * *

What pIC50 was measured for each of the following?
System: MCF-7
assay_method_text: MTS cell growth inhibition assay, MCF-7
Format: cell-based
assay_conditions: Homo sapiens, MCF7; MCF-7, Breast; mean of 2 independent trials
pIC50: −log10 of the molar value.

Determine from records and report pIC50 for C=C1C[C@@H]2[C@H](CC[C@]3(C)C(=O)CC[C@@H]23)[C@@]2(C)C=CC(=O)C=C12 [Exemestane, 6-methylenandrosta-1,4-diene-3,17-dione]
4.02

Determine from records and report pIC50 for COC[C@@H]1C[C@@H]2[C@H](CC[C@]3(C)C(=O)CC[C@@H]23)[C@@]2(C)C=CC(=O)C=C12 [Exemestane 6R]
< 3.70

Determine from records and report pIC50 for COC[C@H]1C[C@@H]2[C@H](CC[C@]3(C)C(=O)CC[C@@H]23)[C@@]2(C)C=CC(=O)C=C12 [Exemestane 6S]
< 3.70

Data origin: patent US7846918B2
